Each entry below carries its recorded GI90.
system: Mycobacterium tuberculosis; assay: Antimycobacterial activity against Mycobacterium tuberculosis H37Rv transformed with pSMT1 luciferase reporter plasmid assessed as growth inhibition after 6 days by luminometry; type: functional

| Compound | GI90, µg/mL |
| --- | --- |
| CC(C)C1CCc2ncc3c(c2C1=O)C(=O)C1=C(C3=O)C2CCC1C2 (stereo not given) | 39.2 |
| Cn1c(=O)c2c3c(cnc2n(C)c1=O)C(=O)C1=C(C3=O)C2CCC1CC2 | 6.98 |
| CCCCn1c(=O)c2c3c(cnc2n(CCCC)c1=O)C(=O)C1=C(C3=O)C2CCC1CC2 | 5.2 |
| CC(C)Cn1c(=O)c2c3c(cnc2n(CC(C)C)c1=O)C(=O)C1=C(C3=O)C2CCC1C2 (stereo not given) | 5.3 |
| CCn1c(=O)c2c3c(cnc2n(CC)c1=O)C(=O)C1=C(C3=O)C2CCC1C2 (stereo not given) | 5.32 |

====

tested on: Mycobacterium tuberculosis; test: Antimycobacterial activity against Mycobacterium tuberculosis H37Rv transformed with pSMT1 luciferase reporter plasmid assessed as growth inhibition after 6 days by luminometry; type: functional; settings: Mycobacterium tuberculosis, H37Rv, 144 h
Each entry below carries its recorded GI50.

| Molecule | GI50 [µg/mL] |
| --- | --- |
| CCCCn1c(=O)c2c3c(cnc2n(CCCC)c1=O)C(=O)C1=C(C3=O)C2CCC1CC2 | 1.84 |
| CC(C)Cn1c(=O)c2c3c(cnc2n(CC(C)C)c1=O)C(=O)C1=C(C3=O)C2CCC1CC2 | 4.36 |
| CCn1c(=O)c2c3c(cnc2n(CC)c1=O)C(=O)C1=C(C3=O)C2CCC1C2 (stereo not drawn) | 1.69 |

====

Each entry below carries its recorded GI50.
system: Mycobacterium tuberculosis; assay: Antimycobacterial activity against Mycobacterium tuberculosis H37Rv transformed with pSMT1 luciferase reporter plasmid assessed as growth inhibition after 6 days by luminometry; format: functional; settings: Mycobacterium tuberculosis, H37Rv, 144 h
Quantity Measured: GI50 (µg/mL)

| Molecule | Quantitative Result |
| --- | --- |
| CCn1c(=O)c2c3c(cnc2n(CC)c1=O)C(=O)C1=C(C3=O)C2CCC1CC2 | 2.55 |
| CCCn1c(=O)c2c3c(cnc2n(CCC)c1=O)C(=O)C1=C(C3=O)C2CCC1CC2 | 2.59 |
| Cn1c(=O)c2c3c(cnc2n(C)c1=O)C(=O)C1=C(C3=O)C2CCC1C2 (stereo not given) | 1.58 |
| CCCCCn1c(=O)c2c3c(cnc2n(CCCCC)c1=O)C(=O)C1=C(C3=O)C2CCC1CC2 | 1.49 |
| CCCCn1c(=O)c2c3c(cnc2n(CCCC)c1=O)C(=O)C1=C(C3=O)C2CCC1C2 (stereo not given) | 1.46 |

====

test system: Mycobacterium tuberculosis; assay: Antimycobacterial activity against Mycobacterium tuberculosis H37Rv transformed with pSMT1 luciferase reporter plasmid assessed as growth inhibition after 6 days by luminometry; assay type: functional
Quantity Measured: GI90 (µg/mL)

| Compound | Assayed Target | Quantitative Result |
| --- | --- | --- |
| CC(C)CCn1c(=O)c2c3c(cnc2n(CCC(C)C)c1=O)C(=O)C1=C(C3=O)C2CCC1C2 (configuration not stated) | Mycobacterium tuberculosis | 8.11 |
| CCCCCCn1c(=O)c2c3c(cnc2n(CCCCCC)c1=O)C(=O)C1=C(C3=O)C2CCC1CC2 | Mycobacterium tuberculosis | 6.13 |
| CCCCn1c(=O)c2c3c(cnc2n(CCCC)c1=O)C(=O)C1=C(C3=O)C2CCC1C2 (configuration not stated) | Mycobacterium tuberculosis | 4.59 |
| CC(C)n1c(=O)c2c3c(cnc2n(C(C)C)c1=O)C(=O)C1=C(C3=O)C2CCC1C2 (configuration not stated) | Mycobacterium tuberculosis | 1.5 |
| CCCn1c(=O)c2c3c(cnc2n(CCC)c1=O)C(=O)C1=C(C3=O)C2CCC1CC2 | Mycobacterium tuberculosis | 5.98 |
| CCCCCCn1c(=O)c2c3c(cnc2n(CCCCCC)c1=O)C(=O)C1=C(C3=O)C2CCC1C2 (configuration not stated) | Mycobacterium tuberculosis | 5.43 |
| CCn1c(=O)c2c3c(cnc2n(CC)c1=O)C(=O)C1=C(C3=O)C2CCC1CC2 | Mycobacterium tuberculosis | 4.33 |
